study_system: T1, IL10RA (UniProt Q13651 22-578, limits assumed)
T1 sequence (looked up): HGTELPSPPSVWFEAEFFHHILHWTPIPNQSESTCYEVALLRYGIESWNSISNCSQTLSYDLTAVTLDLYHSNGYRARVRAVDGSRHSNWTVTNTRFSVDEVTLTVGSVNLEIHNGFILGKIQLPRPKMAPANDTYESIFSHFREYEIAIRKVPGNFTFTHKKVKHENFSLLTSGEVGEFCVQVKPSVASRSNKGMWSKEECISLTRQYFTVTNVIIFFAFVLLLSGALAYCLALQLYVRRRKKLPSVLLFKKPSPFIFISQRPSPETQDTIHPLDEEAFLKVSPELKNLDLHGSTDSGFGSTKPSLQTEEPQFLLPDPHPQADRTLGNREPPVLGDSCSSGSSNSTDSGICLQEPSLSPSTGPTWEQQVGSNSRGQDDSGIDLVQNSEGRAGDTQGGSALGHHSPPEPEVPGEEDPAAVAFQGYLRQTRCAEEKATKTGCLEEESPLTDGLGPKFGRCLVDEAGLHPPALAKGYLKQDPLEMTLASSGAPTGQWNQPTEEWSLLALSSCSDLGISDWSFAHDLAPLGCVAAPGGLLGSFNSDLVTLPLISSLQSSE
test_description: cell-based or functional assay
quantity_kind: EC-50, HEK-Blue IL-10 reporter cells
Quick one: just the number, no unit, thanks!

Note to self: EC-50, HEK-Blue IL-10 reporter cells recorded for ORK10-003-HiBit Q38A (ligand) MTQSENSCTHFPGNLPNMLRDLRDAFSRVKTFFQMKDQLDNLLLKESLLEDFKGYLGCQALSEMIQFYLEEVMPQAENQDPDIKAHVNSLGENLKTLRLRLRRCHRFLPCENKSKAVEQVKNAFNKLQEKGIYKAMSEFDIFINYIEAYLYKTITPEFANMLRDLRDAFSRVKTFFAMKDQLDNLLLKESLLEDFKGYLGCQALSEMIQFYLEEVMPQAENQDPDIKAHVNSLGENLKTLRLRLRRCHRFLPCENKSKAVEQVKNAFNKLQEKGIYKAMSEFDIFINYIEAYMTMGGVSGWRLFKKIS was 2.07e-10
